Target: rat TRPV1 (Rattus norvegicus, UniProt O35433)
Sequence (O35433 whole entry): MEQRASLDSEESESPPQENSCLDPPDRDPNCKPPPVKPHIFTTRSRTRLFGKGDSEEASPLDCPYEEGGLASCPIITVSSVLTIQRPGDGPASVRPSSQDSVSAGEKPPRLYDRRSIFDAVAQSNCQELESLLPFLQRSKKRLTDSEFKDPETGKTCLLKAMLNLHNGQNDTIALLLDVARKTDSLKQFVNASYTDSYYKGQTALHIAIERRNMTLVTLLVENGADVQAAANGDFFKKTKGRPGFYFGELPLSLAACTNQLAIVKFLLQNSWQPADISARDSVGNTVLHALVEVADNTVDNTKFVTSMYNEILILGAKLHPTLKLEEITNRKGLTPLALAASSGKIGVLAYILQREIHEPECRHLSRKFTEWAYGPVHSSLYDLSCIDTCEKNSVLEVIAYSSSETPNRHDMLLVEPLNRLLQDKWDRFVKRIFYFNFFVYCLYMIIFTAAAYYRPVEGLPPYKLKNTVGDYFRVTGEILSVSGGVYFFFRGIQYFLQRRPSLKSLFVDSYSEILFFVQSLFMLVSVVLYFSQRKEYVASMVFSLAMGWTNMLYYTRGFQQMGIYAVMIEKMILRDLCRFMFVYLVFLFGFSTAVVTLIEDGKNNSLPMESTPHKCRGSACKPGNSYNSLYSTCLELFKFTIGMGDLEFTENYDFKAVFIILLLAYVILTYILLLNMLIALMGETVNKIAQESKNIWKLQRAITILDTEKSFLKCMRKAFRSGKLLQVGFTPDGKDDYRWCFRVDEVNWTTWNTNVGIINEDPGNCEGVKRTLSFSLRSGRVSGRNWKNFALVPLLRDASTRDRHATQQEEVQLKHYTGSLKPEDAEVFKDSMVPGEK
Assay: functional 45Ca2+ uptake assay, agonism
Type: cell-based
Details: 45Ca2+ uptake, rat TRPV1 in CHO cells; result in words
measurementName: functional pattern of agonism/antagonism

C=C(C)[C@@]12C[C@@H](C)C34OC(Cc5ccccc5)(OC1[C@@H]3C=C(COC(=O)Cc1cc(Cl)c(O)c(OC)c1)C[C@]1(O)C(=O)C(C)=C[C@@H]41)O2 (some centres unmarked) [compound 32] : full agonists
C=C(C)[C@@]12C[C@@H](C)C34OC(Cc5ccccc5)(OC1[C@@H]3C=C(COC(=O)Cc1cc(Br)cc(Br)c1)C[C@]1(O)C(=O)C(C)=C[C@@H]41)O2 (some centres unmarked) [compound 35] : full agonist
C=C(C)[C@@]12C[C@@H](C)C34OC(Cc5ccccc5)(OC1[C@@H]3C=C(COC(=O)Cc1cc(F)c(O)c(OC)c1)C[C@]1(O)C(=O)C(C)=C[C@@H]41)O2 (some centres unmarked) [compound 31] : full agonists
C=C(C)[C@@]12C[C@@H](C)C34OC(Cc5ccccc5)(OC1[C@@H]3C=C(COC(=O)Cc1cc(F)c(N)c(OC)c1)C[C@]1(O)C(=O)C(C)=C[C@@H]41)O2 (some centres unmarked) [compound 37] : full agonist

* * *

Molecular target: rat TRPV1 (Rattus norvegicus)
Assay: functional 45Ca2+ uptake assay, agonism
Type: cell-based
Conditions: 45Ca2+ uptake, rat TRPV1 in CHO cells; result in words
measurementName: functional pattern of agonism/antagonism

C=C(C)[C@@]12C[C@@H](C)C34OC(Cc5ccccc5)(OC1[C@@H]3C=C(COC(=O)Cc1cc(I)c(O)c(OC)c1)C[C@]1(O)C(=O)C(C)=C[C@@H]41)O2 (stereo partly shown) [compound 2, 5-iodo RTX, reference compound] : full antagonist
C=C(C)[C@@]12C[C@@H](C)C34OC(Cc5ccccc5)(OC1[C@@H]3C=C(COC(=O)Cc1cc(Br)c(N)c(OC)c1)C[C@]1(O)C(=O)C(C)=C[C@@H]41)O2 (stereo partly shown) [compound 39, 5-bromo-4-amino RTX] : full antagonist
